test: Plasma pharmacokinetics, non-compartmental analysis; type: in vivo, human; conditions: human, plasma, oral, 40 mg, t1/2 ss, Amean (n) (range), following BID dosing; 40 mg BID tablet
measureName: half-life (h)
Express it in h; write the number only.

Give the reported half-life for this molecule. COc1ccc(-c2ccc3c(N4CCOC[C@@H]4C)nc(N4CCOC[C@@H]4C)nc3n2)cc1CO 3.04

====

test: Plasma pharmacokinetics, non-compartmental analysis; type: in vivo, human; details: human, plasma, oral, 60 mg, AUC0–12, Gmean (range), single dose; 60 mg tablet (n=7)
measureName: AUC(0-t) (ng·h/mL)
Please give a number only; it is taken to be in ng·h/mL.

Dear colleague, please send me the reported AUC(0-t) for COc1ccc(-c2ccc3c(N4CCOC[C@@H]4C)nc(N4CCOC[C@@H]4C)nc3n2)cc1CO when you can. 131

====

assay: Plasma pharmacokinetics, non-compartmental analysis; assay type: in vivo, human; conditions: human, plasma, oral, 40 mg, Cmax, Gmean (range), single dose; 40 mg tablet (n=7)
measureName: Cmax (ng/mL)
Write the answer as a number in ng/mL, unit excluded.

Please indicate Cmax recorded for COc1ccc(-c2ccc3c(N4CCOC[C@@H]4C)nc(N4CCOC[C@@H]4C)nc3n2)cc1CO 72.3

====

assay: Plasma pharmacokinetics, non-compartmental analysis; type: in vivo, human; details: human, plasma, oral, 120 mg, AUC0–12, Gmean (range), single dose; 120 mg tablet (n=10)
measureName: AUC(0-t) (ng·h/mL)
Reply numerically in ng·h/mL, unit not repeated.

Note AUC(0-t) for the molecule shown: COc1ccc(-c2ccc3c(N4CCOC[C@@H]4C)nc(N4CCOC[C@@H]4C)nc3n2)cc1CO [AZD8055] 280

====

assay: Plasma pharmacokinetics, non-compartmental analysis; format: in vivo, human; conditions: human, plasma, oral, 10 mg, Cmax ss, Gmean (n) (range), following BID dosing; 10 mg BID solution
measureName: Cmax (ng/mL)
A number alone suffices; assume ng/mL.

Look up and state reported Cmax for COc1ccc(-c2ccc3c(N4CCOC[C@@H]4C)nc(N4CCOC[C@@H]4C)nc3n2)cc1CO 17.3

====

assay: Plasma pharmacokinetics, non-compartmental analysis; format: in vivo, human; details: human, plasma, oral, 60 mg, tmax ss, Median (n) (range), following BID dosing; 60 mg BID tablet
measureName: Tmax (h)
Just the number in h, nothing appended.

Tell me Tmax reported for COc1ccc(-c2ccc3c(N4CCOC[C@@H]4C)nc(N4CCOC[C@@H]4C)nc3n2)cc1CO [AZD8055] 1

====

assay: Plasma pharmacokinetics, non-compartmental analysis; assay type: in vivo, human; conditions: human, plasma, oral, 90 mg, Vss/F, Amean (range), single dose; 90 mg tablet (n=11)
measureName: Vd/F (L)
Reply numerically in L, unit not repeated.

Give recorded Vd/F. COc1ccc(-c2ccc3c(N4CCOC[C@@H]4C)nc(N4CCOC[C@@H]4C)nc3n2)cc1CO [AZD8055] 2450

====

assay: Plasma pharmacokinetics, non-compartmental analysis; format: in vivo, human; conditions: human, plasma, oral, 40 mg, AUCss, Gmean (n) (range), following BID dosing; 40 mg BID tablet
measureName: AUC (ng·h/mL)
Report only the number, with the unit ng·h/mL understood.

Answer with the recorded AUC for the compound listed here: COc1ccc(-c2ccc3c(N4CCOC[C@@H]4C)nc(N4CCOC[C@@H]4C)nc3n2)cc1CO [AZD8055] 101
